From: PubChem BioAssay

In this section, each of the molecules is paired with its reported activity remaining.
Tested on: Aerobactin synthetase IucA (Klebsiella pneumoniae hvKP1)
Assay: Biochemical IucA enzyme inhibition primary screen of the Spectrum library (AID 1346200);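 note: 100% = wells without compound and 0% = wells lacking enzyme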
Conditions: malachite green pyrophosphate, A620, at 8 µM, hits give low values

{"MOLECULE": "CC1(C)S[C@@H]2[C@H](NC(=O)COc3ccccc3)C(=O)N2[C@H]1C(=O)O", "TGT": "Aerobactin synthetase IucA (Klebsiella pneumoniae hvKP1)", "OUTPUT UNIT": "%", "activity remaining": 96.2}
{"MOLECULE": "CN1C(C(=O)Nc2ccccn2)=C(O)c2ccccc2S1(=O)=O", "TGT": "Aerobactin synthetase IucA (Klebsiella pneumoniae hvKP1)", "OUTPUT UNIT": "%", "activity remaining": 115}
{"MOLECULE": "Nc1ccc(C(=O)NCC(=O)O)cc1", "TGT": "Aerobactin synthetase IucA (Klebsiella pneumoniae hvKP1)", "OUTPUT UNIT": "%", "activity remaining": 111}
{"MOLECULE": "O=C(O)c1ccccc1", "TGT": "Aerobactin synthetase IucA (Klebsiella pneumoniae hvKP1)", "OUTPUT UNIT": "%", "activity remaining": 115}
{"MOLECULE": "O=c1cc(-c2cccc(O)c2)oc2ccc(O)cc12", "TGT": "Aerobactin synthetase IucA (Klebsiella pneumoniae hvKP1)", "OUTPUT UNIT": "%", "activity remaining": 101}
{"MOLECULE": "CC(C)[C@@H]1CC[C@@H](C)C[C@H]1OC(=O)c1ccccc1", "TGT": "Aerobactin synthetase IucA (Klebsiella pneumoniae hvKP1)", "OUTPUT UNIT": "%", "activity remaining": 120}
{"MOLECULE": "COc1ccc2nc(S(=O)Cc3ncc(C)c(OC)c3C)[nH]c2c1 (stereo not drawn)", "TGT": "Aerobactin synthetase IucA (Klebsiella pneumoniae hvKP1)", "OUTPUT UNIT": "%", "activity remaining": 126}
{"MOLECULE": "C[N+]1(C)CCc2cc3c(cc2[C@H]1C1OC(=O)c2c1ccc1c2OCO1)OCO3 (stereo partly drawn)", "TGT": "Aerobactin synthetase IucA (Klebsiella pneumoniae hvKP1)", "OUTPUT UNIT": "%", "activity remaining": 129}
